test: Stability in liver microsomes, human
EXPERIMENTAL_ENDPOINT: Treprostinil Concentration 60 min

The examples below pair each entry with its known result.
>  <MOLECULE>
CCCCCC(CCC1C(O)CC2Cc3c(cccc3OCC(=O)O)CC21)OC(C)=O (stereo not shown) [Prodrug XLIII]

>  <Treprostinil Concentration 60 min>
0.513 µM

$$$$
>  <MOLECULE>
CCCCCC(CCC1C(O)CC2Cc3c(cccc3OCC(=O)O)CC21)OC(=O)CC (stereo not shown) [Prodrug LV]

>  <Treprostinil Concentration 60 min>
0.736 µM

$$$$

-- ask Endpoint output: Treprostinil Concentration 60 min of CCCCCC(CCC1C(O)CC2Cc3c(cccc3OCC(=O)O)CC21)OP(=O)(O)O (stereo not shown) [Prodrug VI] . Value?
-- reply 0.03 µM

-- ask Endpoint output: Treprostinil Concentration 60 min of CCCCCC(CCC1C(OC(=O)CC)CC2Cc3c(cccc3OCC(=O)O)CC21)OC(=O)CC (stereo not shown) [Prodrug LXX, treprostinil dipropionate] . Value?
-- reply 0.538 µM

* * *

Let's look at some compounds and their measured Trep Concentration 20 min.
experiment: Stability in liver microsomes, human
Reply numerically in µM, unit not repeated.

>  <COMPOUND>
CCCCCC(CCC1C(O)CC2Cc3c(cccc3OCC(=O)O)CC21)OCOC(=O)C(C)(C)C (stereo not shown)

>  <EXPERIMENTAL_ENDPOINT>
Trep Concentration 20 min

>  <UNITS_SYMBOL>
µM

>  <MEASUREMENT>
0.679

$$$$
>  <COMPOUND>
CCCCCC(CCC1C(O)CC2Cc3c(cccc3OCC(=O)O)CC21)OCCC (stereo not shown)

>  <EXPERIMENTAL_ENDPOINT>
Trep Concentration 20 min

>  <UNITS_SYMBOL>
µM

>  <MEASUREMENT>
0.0556

$$$$
>  <COMPOUND>
CCCCCC(CCC1C(OC(=O)CC)CC2Cc3c(cccc3OCC(=O)O)CC21)OC(=O)CC (stereo not shown) [Prodrug LXX, treprostinil dipropionate]

>  <EXPERIMENTAL_ENDPOINT>
Trep Concentration 20 min

>  <UNITS_SYMBOL>
µM

>  <MEASUREMENT>
0.602

$$$$

Kindly review the next compound as well.
-- ask Endpoint output: Trep Concentration 20 min of CCCCCC(O)CCC1C(OC)CC2Cc3c(cccc3OCC(=O)O)CC21 (stereo not shown) . Value?
-- reply 0.0343

* * *

assay: Stability in liver microsomes, rat
Let's look at some molecules and their measured Trep Concentration 0 min.
Reply numerically in µM, unit not repeated.

The examples below pair each entry with its known result.
>  <MOLECULE>
CCCCC[C@H]1CC[C@@H]2[C@H]3Cc4cccc(OCC(=O)O)c4C[C@H]3C[C@H]2OC(=O)O1 [XXIV]

>  <UNITS_SYMBOL>
µM

>  <Trep Concentration 0 min>
0.779

$$$$
>  <MOLECULE>
CCCCCC(CCC1C(O)CC2Cc3c(cccc3OCC(=O)O)CC21)OC(=O)c1ccc(O)c(O)c1 (centres unmarked) [LXVI]

>  <UNITS_SYMBOL>
µM

>  <Trep Concentration 0 min>
0

$$$$
>  <MOLECULE>
CCCCCC(CCC1C(O)CC2Cc3c(cccc3OCC(=O)O)CC21)OC(=O)c1ccc(OC(F)(F)F)cc1 (centres unmarked) [LXIII]

>  <UNITS_SYMBOL>
µM

>  <Trep Concentration 0 min>
0.0393

$$$$
>  <MOLECULE>
CCCCCC(CCC1C(O)CC2Cc3c(cccc3OCC(=O)O)CC21)OC(N)=O (centres unmarked) [XLII]

>  <UNITS_SYMBOL>
µM

>  <Trep Concentration 0 min>
0.322

$$$$
>  <MOLECULE>
CCCCCC(CCC1C(O)CC2Cc3c(cccc3OCC(=O)O)CC21)OC(=O)CC (centres unmarked) [LV]

>  <UNITS_SYMBOL>
µM

>  <Trep Concentration 0 min>
0.26

$$$$

-- ask Endpoint output: Trep Concentration 0 min of CCCCCC(CCC1C(O)CC2Cc3c(cccc3OCC(=O)O)CC21)OC(=O)OC(C)C (centres unmarked) [XVII] . Value?
-- reply 0.29

-- ask Endpoint output: Trep Concentration 0 min of CCCCCC(CCC1C(O)CC2Cc3c(cccc3OCC(=O)O)CC21)OC(=O)OCC(=O)O (centres unmarked) [XXXIX] . Value?
-- reply 0

-- ask Endpoint output: Trep Concentration 0 min of CCCCCC(O)CCC1C(OC(=O)CCC(=O)O)CC2Cc3c(cccc3OCC(=O)O)CC21 (centres unmarked) [XXII] . Value?
-- reply 0

Reference source: patent US12491170B2
